System: MDA-MB-231 cells
Assay: Cytotoxicity / synergistic cytotoxic effect test in MDA-MB-231 cells
Assay type: cell-based, human
Details: Homo sapiens; Table 2; single drug; MDA-MB-231 cells; 48 hours; read-out: IC50
Reported endpoint: IC50 (nM)
Respond with the bare value in nM.

Any idea what its IC50 is? The compound is COc1cccc2c1C(=O)c1c(O)c3c(c(O)c1C2=O)C[C@@](O)(C(=O)CO)C[C@@H]3O[C@H]1C[C@H](N)[C@H](O)[C@H](C)O1 [Doxorubicin, doxorubicin]
1270

---

Test system: 4T1 cells
Experiment: Cytotoxicity / synergistic cytotoxic effect test in 4T1 cells
Type: cell-based, mouse
Details: Mus musculus; Table 1; 4T1 cells; read-out: IC50 of various chemotherapy drugs against different cancer cells
Excerpt: The cell lines used in the following examples, namely the MDA-MB-231 (human triple-negative breast cancer) cell line, the 4T1 (mouse triple-negative breast cancer) cell line, and the MCF-7 (breast cancer) cell line, are easily obtainable by a person with common knowledge in the art and therefore need not be deposited. The 4T1 cell line is frequently used as a research model for the metastasis of breast cancer and a model for the selection of clinical drugs for breast cancer. […]
Reported endpoint: pIC50
# log scale: pIC50 equals minus log10 of the concentration in mol/L

Recall the recorded pIC50 for COc1cccc2c1C(=O)c1c(O)c3c(c(O)c1C2=O)C[C@@](O)(C(=O)CO)C[C@@H]3O[C@H]1C[C@H](N)[C@H](O)[C@H](C)O1 [Doxorubicin, doxorubicin] with 4T1 cells and state it.
8.55

---

System: MCF-7 cells
Experiment: Cytotoxicity / synergistic cytotoxic effect test in MCF-7 cells
Type: cell-based
Details: Homo sapiens, MCF7; Table 2; single drug; MCF-7 cells; 48 hours; read-out: IC50
Reported endpoint: pIC50
// pIC50 here means minus log10 of the molar concentration (mol/L)

Entry COc1cccc2c1C(=O)c1c(O)c3c(c(O)c1C2=O)C[C@@](O)(C(=O)CO)C[C@@H]3O[C@H]1C[C@H](N)[C@H](O)[C@H](C)O1 [Doxorubicin, doxorubicin] : reported pIC50 = ?
6.49

---

Tested on: MDA-MB-231 cells
Assay: Cytotoxicity / synergistic cytotoxic effect test in MDA-MB-231 cells
Format: cell-based, human
Details: Table 1; MDA-MB-231 cells; read-out: IC50 of various chemotherapy drugs against different cancer cells
Reported endpoint: IC50 (µM)
A number alone suffices; assume µM.

Using the record for N.N.[Cl][Pt][Cl] [Cisplatin, cisplatin] , report its IC50.
37.2

---

Entries and their pIC50 values follow.
System: 4T1 cells
Experiment: Cytotoxicity / synergistic cytotoxic effect test in 4T1 cells
Type: cell-based, mouse
Conditions: Table 1; 4T1 cells; read-out: IC50 of various chemotherapy drugs against different cancer cells
From the text: The cell lines used in the following examples, namely the MDA-MB-231 (human triple-negative breast cancer) cell line, the 4T1 (mouse triple-negative breast cancer) cell line, and the MCF-7 (breast cancer) cell line, are easily obtainable by a person with common knowledge in the art and therefore need not be deposited. The 4T1 cell line is frequently used as a research model for the metastasis of breast cancer and a model for the selection of clinical drugs for breast cancer. […]
// scale note: pIC50 = -log10(conc_M); give the bare number

compound=O=c1[nH]cc(F)c(=O)[nH]1 reported_measurement=5.23

Let us move to another entry and its pIC50.
Would you kindly share the measured pIC50 for N.N.[Cl][Pt][Cl] [Cisplatin, cisplatin] ?
5.48

Taken from patent US20240307484A1.
